Values compiled from patent US12331051B2.

Target: 5-HT2A receptor (5-HT2AR) (Homo sapiens, UniProt P28223)
Construct: expressed in transfected cells; host or cells: HEK-293
Sequence (P28223 whole entry): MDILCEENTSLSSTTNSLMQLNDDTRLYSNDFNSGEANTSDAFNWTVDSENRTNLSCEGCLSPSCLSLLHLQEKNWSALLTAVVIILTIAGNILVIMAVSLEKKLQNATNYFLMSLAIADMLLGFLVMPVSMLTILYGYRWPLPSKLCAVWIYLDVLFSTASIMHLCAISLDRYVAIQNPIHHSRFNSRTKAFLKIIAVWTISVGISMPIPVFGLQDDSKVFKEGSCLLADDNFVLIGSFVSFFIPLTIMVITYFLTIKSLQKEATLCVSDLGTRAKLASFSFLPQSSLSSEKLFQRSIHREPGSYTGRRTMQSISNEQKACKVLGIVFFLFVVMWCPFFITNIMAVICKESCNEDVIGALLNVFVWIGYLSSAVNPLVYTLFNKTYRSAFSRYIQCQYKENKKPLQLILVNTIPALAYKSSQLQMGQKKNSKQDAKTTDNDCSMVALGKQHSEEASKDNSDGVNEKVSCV
Assay: Functional assay in HEK-293 cells (IP1)
Format: cell-based
Conditions: read-out: Functional Assay (agonist) EC50; IP1; ligand 5-HT
pEC50: −log10 of the molar value.

Compound smiles | pEC50
CCN(CC)C(=O)[C@@H]1C=C2c3cccc4[nH]c(Br)c(c34)C[C@H]2N(C)C1 | 7.96

----------
Target: ADRb1 (β1 adrenergic receptor) (Homo sapiens, UniProt P08588)
Sequence (P08588 whole entry): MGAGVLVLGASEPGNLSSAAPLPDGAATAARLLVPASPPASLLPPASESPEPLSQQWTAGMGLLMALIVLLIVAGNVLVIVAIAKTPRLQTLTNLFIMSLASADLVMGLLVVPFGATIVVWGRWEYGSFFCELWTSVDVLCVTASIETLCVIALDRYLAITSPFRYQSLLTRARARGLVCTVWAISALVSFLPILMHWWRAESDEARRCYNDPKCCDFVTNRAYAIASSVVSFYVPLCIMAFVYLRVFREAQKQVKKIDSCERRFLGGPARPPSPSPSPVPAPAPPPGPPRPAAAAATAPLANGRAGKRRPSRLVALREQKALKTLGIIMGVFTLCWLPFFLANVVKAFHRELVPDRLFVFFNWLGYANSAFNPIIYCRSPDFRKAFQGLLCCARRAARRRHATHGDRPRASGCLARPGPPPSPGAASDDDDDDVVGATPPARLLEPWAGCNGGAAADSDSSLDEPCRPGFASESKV
Test: BRET-based G protein dissociation assay

Compound smiles | EC50
CCN(CC)C(=O)[C@@H]1C=C2c3cccc4[nH]c(Br)c(c34)C[C@H]2N(C)C1 | > 10 µM

----------
Target: Serotonin 1B receptor (5-HT1BR) (Homo sapiens, UniProt P28222)
Sequence (P28222 whole entry): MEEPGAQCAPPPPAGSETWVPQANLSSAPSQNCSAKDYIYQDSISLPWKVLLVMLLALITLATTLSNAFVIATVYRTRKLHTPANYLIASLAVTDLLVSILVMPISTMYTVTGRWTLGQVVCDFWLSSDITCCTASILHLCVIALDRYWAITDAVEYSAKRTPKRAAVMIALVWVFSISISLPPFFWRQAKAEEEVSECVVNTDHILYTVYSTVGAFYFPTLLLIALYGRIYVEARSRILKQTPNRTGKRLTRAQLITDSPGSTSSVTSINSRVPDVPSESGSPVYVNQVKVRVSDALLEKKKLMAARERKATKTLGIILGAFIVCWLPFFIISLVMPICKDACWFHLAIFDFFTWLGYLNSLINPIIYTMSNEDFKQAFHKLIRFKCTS

Compound smiles | Ki [nM]
CCN(CC)C(=O)[C@@H]1C=C2c3cccc4[nH]c(Br)c(c34)C[C@H]2N(C)C1 | 77

----------
Target: D1 dopamine receptor (Homo sapiens)
Sequence (P21728 whole entry): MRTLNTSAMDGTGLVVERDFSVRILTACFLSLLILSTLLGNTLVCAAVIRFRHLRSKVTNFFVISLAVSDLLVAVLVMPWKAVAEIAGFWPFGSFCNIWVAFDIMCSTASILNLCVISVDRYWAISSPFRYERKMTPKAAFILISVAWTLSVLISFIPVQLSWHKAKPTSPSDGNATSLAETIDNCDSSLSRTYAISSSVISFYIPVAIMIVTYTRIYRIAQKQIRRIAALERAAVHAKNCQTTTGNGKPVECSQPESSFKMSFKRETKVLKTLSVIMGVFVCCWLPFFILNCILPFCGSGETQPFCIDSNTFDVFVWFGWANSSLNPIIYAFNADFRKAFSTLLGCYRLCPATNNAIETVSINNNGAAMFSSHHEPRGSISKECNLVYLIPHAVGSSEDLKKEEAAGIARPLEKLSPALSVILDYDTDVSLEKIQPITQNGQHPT
Assay: Functional assay in HEK-293 cells (cAMP)
Type: cell-based
Design: expressed in transfected cells; host or cells: HEK-293
pEC50: −log10 of the molar value.

Compound smiles | pEC50
CCN(CC)C(=O)[C@@H]1C=C2c3cccc4[nH]c(Br)c(c34)C[C@H]2N(C)C1 | < 5.00
